Hello, the source for this data is patent US20230183713A1, in case you need it.

study-target: T1, Cre recombinase monomer with Y324T mutation
T1 chain: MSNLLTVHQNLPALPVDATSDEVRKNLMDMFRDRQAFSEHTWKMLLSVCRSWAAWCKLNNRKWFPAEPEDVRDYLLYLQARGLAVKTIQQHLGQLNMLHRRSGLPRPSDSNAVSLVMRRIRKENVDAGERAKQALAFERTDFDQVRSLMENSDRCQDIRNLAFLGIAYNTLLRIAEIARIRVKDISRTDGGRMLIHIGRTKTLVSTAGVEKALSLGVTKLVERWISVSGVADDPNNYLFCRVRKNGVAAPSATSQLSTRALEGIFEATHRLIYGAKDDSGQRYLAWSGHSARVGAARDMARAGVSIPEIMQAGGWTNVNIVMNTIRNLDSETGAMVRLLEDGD
quantity-kind: Median dimer activity (recombination on loxP) (%)
Give bare numbers, in %.

Cre recombinase monomer with W315C mutation (protein) MSNLLTVHQNLPALPVDATSDEVRKNLMDMFRDRQAFSEHTWKMLLSVCRSWAAWCKLNNRKWFPAEPEDVRDYLLYLQARGLAVKTIQQHLGQLNMLHRRSGLPRPSDSNAVSLVMRRIRKENVDAGERAKQALAFERTDFDQVRSLMENSDRCQDIRNLAFLGIAYNTLLRIAEIARIRVKDISRTDGGRMLIHIGRTKTLVSTAGVEKALSLGVTKLVERWISVSGVADDPNNYLFCRVRKNGVAAPSATSQLSTRALEGIFEATHRLIYGAKDDSGQRYLAWSGHSARVGAARDMARAGVSIPEIMQAGGCTNVNIVMNYIRNLDSETGAMVRLLEDGD :: 36
Cre recombinase monomer with R173G mutation (protein) MSNLLTVHQNLPALPVDATSDEVRKNLMDMFRDRQAFSEHTWKMLLSVCRSWAAWCKLNNRKWFPAEPEDVRDYLLYLQARGLAVKTIQQHLGQLNMLHRRSGLPRPSDSNAVSLVMRRIRKENVDAGERAKQALAFERTDFDQVRSLMENSDRCQDIRNLAFLGIAYNTLLGIAEIARIRVKDISRTDGGRMLIHIGRTKTLVSTAGVEKALSLGVTKLVERWISVSGVADDPNNYLFCRVRKNGVAAPSATSQLSTRALEGIFEATHRLIYGAKDDSGQRYLAWSGHSARVGAARDMARAGVSIPEIMQAGGWTNVNIVMNYIRNLDSETGAMVRLLEDGD :: 32

Field: next protein
Note to self: Median dimer activity (recombination on loxP) recorded for Cre recombinase monomer with K201L mutation (protein) MSNLLTVHQNLPALPVDATSDEVRKNLMDMFRDRQAFSEHTWKMLLSVCRSWAAWCKLNNRKWFPAEPEDVRDYLLYLQARGLAVKTIQQHLGQLNMLHRRSGLPRPSDSNAVSLVMRRIRKENVDAGERAKQALAFERTDFDQVRSLMENSDRCQDIRNLAFLGIAYNTLLRIAEIARIRVKDISRTDGGRMLIHIGRTLTLVSTAGVEKALSLGVTKLVERWISVSGVADDPNNYLFCRVRKNGVAAPSATSQLSTRALEGIFEATHRLIYGAKDDSGQRYLAWSGHSARVGAARDMARAGVSIPEIMQAGGWTNVNIVMNYIRNLDSETGAMVRLLEDGD was 25
